Source listed as the supplement of paper PMC10065799.

- Tested on: Fer (mouse)
- PROTOCOL DETAILS: phosphorylation enrichment, bacterial display (enrichment ratio); higher = better substrate or ligand; peptides without Tyr show the background;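 also: 11-residue human phosphosite peptides and single-mutation variants displayed on the E. coli surface, counted by deep sequencing, each peptide's frequency after selection divided by its frequency in the unselected input library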;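 also: frequency after pTyr selection over input frequency; kinase dosed for 20-30% of maximal phosphorylation in three min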
Please go through the items and note down their phosphorylation enrichment.
Answer with a number only.

Task: Any idea what its phosphorylation enrichment is? The sequence is QPGDIYHQTWA [GBA_Y244]
Output: 1.3

Task: Any idea what its phosphorylation enrichment is? The sequence is FGMQLYQNFMH [GRB14_Y347_YF]
Output: 5.17

Task: Any idea what its phosphorylation enrichment is? The sequence is PDKRIYQFTAS [SKAP2_Y197_A202S]
Output: 0.802

Task: Any idea what its phosphorylation enrichment is? The sequence is CPTIHYNFMCN [TP53_Y234_T230P_YF]
Output: 0.646

Task: Any idea what its phosphorylation enrichment is? The sequence is RRDRDYTNLPS [CSF1R_Y923_E920D]
Output: 0.64

Task: Any idea what its phosphorylation enrichment is? The sequence is RLEPVYFVAPA [LAMC2_Y250_D247E]
Output: 0.985

Task: Any idea what its phosphorylation enrichment is? The sequence is IKNSGYISQFL [EIF2AK3_Y585_R588Q_YF]
Output: 0.377

Task: Any idea what its phosphorylation enrichment is? The sequence is GGGCGYNRSSG [FUS_Y232_G230C]
Output: 0.434

Task: Any idea what its phosphorylation enrichment is? The sequence is GDLTDYLMKIL [ACTA1_Y190_R185G]
Output: 0.42

Task: Any idea what its phosphorylation enrichment is? The sequence is SENAFYLSPHI [COL6A3_Y2827_D2831H]
Output: 0.775

Task: Any idea what its phosphorylation enrichment is? The sequence is YGIAQYCCRMG [LRRK2_Y2023]
Output: 0.902

Task: Any idea what its phosphorylation enrichment is? The sequence is IQTDGYRAPEA [UHMK1_Y197]
Output: 0.461

Task: Any idea what its phosphorylation enrichment is? The sequence is LIHLHYIRKDY [BBS4_Y43]
Output: 0.447

Task: Any idea what its phosphorylation enrichment is? The sequence is TVQVAYYTMMM [SPATA17_Y83]
Output: 3.74

Task: Any idea what its phosphorylation enrichment is? The sequence is RRIHSYRGHVW [VHL_Y112_L116V]
Output: 0.559

Task: Any idea what its phosphorylation enrichment is? The sequence is EWKQNYEESQS [MYH7_Y1460_K1459N]
Output: 0.792

Task: Any idea what its phosphorylation enrichment is? The sequence is EKRDAYVSRLN [GSR_Y150]
Output: 0.328

Task: Any idea what its phosphorylation enrichment is? The sequence is DVLVEYQEEGR [GNS_Y416_G418E]
Output: 0.578

Task: Any idea what its phosphorylation enrichment is? The sequence is FISVGYVDDTL [HLA-B_Y51_Q56L]
Output: 0.652

Task: Any idea what its phosphorylation enrichment is? The sequence is RAVLLYEYVGK [NATD1_Y45]
Output: 19.4

Task: Any idea what its phosphorylation enrichment is? The sequence is EDSEFYRAFEE [CASQ2_Y179_K180R_YF]
Output: 0.489

Task: Any idea what its phosphorylation enrichment is? The sequence is IENKPYGMSDP [RET_Y1062_L1061P]
Output: 0.483

Task: Any idea what its phosphorylation enrichment is? The sequence is RPGSGYTNIMR [PKLR_Y564]
Output: 0.429

Task: Any idea what its phosphorylation enrichment is? The sequence is KRFRIYHLATS [BRCA2_Y3009_YF]
Output: 0.422

###

- TARGET DESC: EPHB2 (UniProt P29323)
- Sequence (P29323 whole entry, looked up): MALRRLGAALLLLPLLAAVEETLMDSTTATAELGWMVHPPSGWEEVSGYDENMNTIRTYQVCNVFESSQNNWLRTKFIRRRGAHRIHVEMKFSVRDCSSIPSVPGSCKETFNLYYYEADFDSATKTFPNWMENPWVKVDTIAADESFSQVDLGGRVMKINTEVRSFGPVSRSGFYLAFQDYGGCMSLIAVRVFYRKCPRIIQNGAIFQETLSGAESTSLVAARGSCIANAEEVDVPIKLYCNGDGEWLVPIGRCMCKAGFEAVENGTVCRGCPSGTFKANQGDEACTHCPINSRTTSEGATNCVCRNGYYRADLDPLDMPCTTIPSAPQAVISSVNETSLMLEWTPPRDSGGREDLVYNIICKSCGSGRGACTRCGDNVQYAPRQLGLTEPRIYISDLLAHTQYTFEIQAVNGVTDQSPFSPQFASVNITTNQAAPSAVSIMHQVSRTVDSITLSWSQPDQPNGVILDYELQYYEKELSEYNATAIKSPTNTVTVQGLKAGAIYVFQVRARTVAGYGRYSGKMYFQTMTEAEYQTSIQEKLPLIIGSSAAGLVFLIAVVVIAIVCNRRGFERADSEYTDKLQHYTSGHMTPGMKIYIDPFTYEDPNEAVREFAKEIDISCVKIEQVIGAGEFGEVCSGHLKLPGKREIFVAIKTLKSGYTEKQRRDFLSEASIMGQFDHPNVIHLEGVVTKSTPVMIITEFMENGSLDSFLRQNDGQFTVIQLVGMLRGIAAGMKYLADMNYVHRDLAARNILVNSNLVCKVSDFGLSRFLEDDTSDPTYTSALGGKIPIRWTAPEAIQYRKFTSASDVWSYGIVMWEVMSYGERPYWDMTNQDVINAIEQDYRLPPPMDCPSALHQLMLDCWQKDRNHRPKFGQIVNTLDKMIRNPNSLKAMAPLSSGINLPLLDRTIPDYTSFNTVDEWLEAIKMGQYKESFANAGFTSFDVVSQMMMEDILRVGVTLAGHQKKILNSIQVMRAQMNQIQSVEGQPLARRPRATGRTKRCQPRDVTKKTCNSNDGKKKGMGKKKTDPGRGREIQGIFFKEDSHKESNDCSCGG
- PROTOCOL DETAILS: phosphorylation enrichment, bacterial display (enrichment ratio); higher = better substrate or ligand; peptides without Tyr show the background
PROPERTY MEASURED: phosphorylation enrichment
Answer with a number only.

Task: Any idea what its phosphorylation enrichment is? The sequence is YKIYRYTLNDN [FN1_Y1975_L1974R]
Output: 0.557

Task: Any idea what its phosphorylation enrichment is? The sequence is EDSEFYRAFEE [CASQ2_Y179_K180R_YF]
Output: 0.525

Task: Any idea what its phosphorylation enrichment is? The sequence is QAPPIYLDVLG [NTRK1_Y791_V790I]
Output: 3.26

Task: Any idea what its phosphorylation enrichment is? The sequence is AVVEPYNSLLT [TUBA1A_Y185_I188L]
Output: 0.618

Task: Any idea what its phosphorylation enrichment is? The sequence is ALRASYTPSPA [ESS2_Y418]
Output: 0.34

Task: Any idea what its phosphorylation enrichment is? The sequence is DLVLQYLRVPL [F9_Y371_A366D]
Output: 0.525

Task: Any idea what its phosphorylation enrichment is? The sequence is NETNKYQISVN [FGB_Y368_A365T]
Output: 0.46

###

Please go through the items and note down their phosphorylation enrichment.
- TARGET DESC: Jak2 (UniProt O60674)
- Sequence (O60674 whole entry, looked up): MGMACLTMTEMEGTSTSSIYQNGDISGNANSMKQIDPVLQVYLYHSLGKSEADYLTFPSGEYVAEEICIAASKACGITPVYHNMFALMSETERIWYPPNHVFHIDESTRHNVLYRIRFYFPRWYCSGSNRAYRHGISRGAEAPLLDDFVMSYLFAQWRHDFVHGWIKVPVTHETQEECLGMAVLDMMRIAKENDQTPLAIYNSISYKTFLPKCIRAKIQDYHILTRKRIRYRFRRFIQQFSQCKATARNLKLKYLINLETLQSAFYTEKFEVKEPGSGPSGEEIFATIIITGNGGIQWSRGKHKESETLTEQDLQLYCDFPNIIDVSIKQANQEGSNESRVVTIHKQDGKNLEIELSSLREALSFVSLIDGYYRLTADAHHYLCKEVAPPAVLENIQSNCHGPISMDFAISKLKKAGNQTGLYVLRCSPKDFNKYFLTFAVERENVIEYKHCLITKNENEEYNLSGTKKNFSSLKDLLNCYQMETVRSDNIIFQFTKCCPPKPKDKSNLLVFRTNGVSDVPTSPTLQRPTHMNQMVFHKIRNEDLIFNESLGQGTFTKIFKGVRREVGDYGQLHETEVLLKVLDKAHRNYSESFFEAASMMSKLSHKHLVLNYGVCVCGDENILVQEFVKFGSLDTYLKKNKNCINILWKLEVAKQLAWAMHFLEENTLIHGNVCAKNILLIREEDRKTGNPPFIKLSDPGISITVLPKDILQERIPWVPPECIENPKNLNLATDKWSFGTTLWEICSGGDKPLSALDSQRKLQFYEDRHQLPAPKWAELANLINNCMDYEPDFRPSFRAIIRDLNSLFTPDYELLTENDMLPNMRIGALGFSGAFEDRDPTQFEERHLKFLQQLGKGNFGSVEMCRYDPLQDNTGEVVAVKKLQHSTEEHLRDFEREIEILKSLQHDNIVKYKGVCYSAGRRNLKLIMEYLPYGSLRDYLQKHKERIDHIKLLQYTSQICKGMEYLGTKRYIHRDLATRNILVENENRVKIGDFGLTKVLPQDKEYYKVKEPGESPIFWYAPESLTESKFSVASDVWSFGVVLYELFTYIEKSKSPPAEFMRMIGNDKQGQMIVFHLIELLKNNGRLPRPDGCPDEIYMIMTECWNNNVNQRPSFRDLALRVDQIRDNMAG
- PROTOCOL DETAILS: phosphorylation enrichment, bacterial display (enrichment ratio); higher = better substrate or ligand; peptides without Tyr show the background
Answer with a number only.

Task: Any idea what its phosphorylation enrichment is? The sequence is DLDPNYVLSSR [CKM_Y125]
Output: 0.759

Task: Any idea what its phosphorylation enrichment is? The sequence is EKRDAYVSRLN [GSR_Y150]
Output: 0.48

Task: Any idea what its phosphorylation enrichment is? The sequence is NVGGKYSFLKV [GRM3_Y478_YF]
Output: 0.663

Task: Any idea what its phosphorylation enrichment is? The sequence is DLVSEYQQFQD [TUBB3_Y422_YF]
Output: 1.25

Task: Any idea what its phosphorylation enrichment is? The sequence is ATPKGYEPDAS [OTC_Y223]
Output: 0.79

Task: Any idea what its phosphorylation enrichment is? The sequence is KELAKYYKLHH [AK7_Y390_N389K]
Output: 0.379

Task: Any idea what its phosphorylation enrichment is? The sequence is FTRNYYVQAVL [CYBA_Y88_R90Q]
Output: 1.06

Task: Any idea what its phosphorylation enrichment is? The sequence is FRPHLYGTPSR [ADGRE2_Y670_S665F]
Output: 0.611

Task: Any idea what its phosphorylation enrichment is? The sequence is PKSWNYELPAT [PROM1_Y34_A31S]
Output: 0.658

Task: Any idea what its phosphorylation enrichment is? The sequence is RREWYYEVIIV [BACE1_Y260]
Output: 0.389

Task: Any idea what its phosphorylation enrichment is? The sequence is SSREGYVSHHN [FAM83B_Y433]
Output: 0.48

Task: Any idea what its phosphorylation enrichment is? The sequence is AEFGLYAAMVR [VSX2_Y222_G223A_YF]
Output: 1.54

Task: Any idea what its phosphorylation enrichment is? The sequence is LQEQNYPAVDS [FAM114A1_Y115_L116P]
Output: 1.54

Task: Any idea what its phosphorylation enrichment is? The sequence is YNNYGYGNDGF [HNRNPH3_Y161]
Output: 0.673

Task: Any idea what its phosphorylation enrichment is? The sequence is MTYVFYRENLR [NLRP14_Y443]
Output: 1.48

Task: Any idea what its phosphorylation enrichment is? The sequence is TDHLRYFDSNK [ARAP1_Y359]
Output: 0.665

Task: Any idea what its phosphorylation enrichment is? The sequence is GDFFRSLAEVA [YWHAG_Y133_Y133S_YF]
Output: 0.72

Task: Any idea what its phosphorylation enrichment is? The sequence is PGVDRYSLGTS [C5orf42_Y1451]
Output: 0.769

Task: Any idea what its phosphorylation enrichment is? The sequence is YSGDYYRIQGR [DDR2_Y741]
Output: 8.46

###

Please go through the items and note down their phosphorylation enrichment.
- TARGET DESC: EPHB1 (UniProt P54762)
- Sequence (P54762 whole entry, looked up): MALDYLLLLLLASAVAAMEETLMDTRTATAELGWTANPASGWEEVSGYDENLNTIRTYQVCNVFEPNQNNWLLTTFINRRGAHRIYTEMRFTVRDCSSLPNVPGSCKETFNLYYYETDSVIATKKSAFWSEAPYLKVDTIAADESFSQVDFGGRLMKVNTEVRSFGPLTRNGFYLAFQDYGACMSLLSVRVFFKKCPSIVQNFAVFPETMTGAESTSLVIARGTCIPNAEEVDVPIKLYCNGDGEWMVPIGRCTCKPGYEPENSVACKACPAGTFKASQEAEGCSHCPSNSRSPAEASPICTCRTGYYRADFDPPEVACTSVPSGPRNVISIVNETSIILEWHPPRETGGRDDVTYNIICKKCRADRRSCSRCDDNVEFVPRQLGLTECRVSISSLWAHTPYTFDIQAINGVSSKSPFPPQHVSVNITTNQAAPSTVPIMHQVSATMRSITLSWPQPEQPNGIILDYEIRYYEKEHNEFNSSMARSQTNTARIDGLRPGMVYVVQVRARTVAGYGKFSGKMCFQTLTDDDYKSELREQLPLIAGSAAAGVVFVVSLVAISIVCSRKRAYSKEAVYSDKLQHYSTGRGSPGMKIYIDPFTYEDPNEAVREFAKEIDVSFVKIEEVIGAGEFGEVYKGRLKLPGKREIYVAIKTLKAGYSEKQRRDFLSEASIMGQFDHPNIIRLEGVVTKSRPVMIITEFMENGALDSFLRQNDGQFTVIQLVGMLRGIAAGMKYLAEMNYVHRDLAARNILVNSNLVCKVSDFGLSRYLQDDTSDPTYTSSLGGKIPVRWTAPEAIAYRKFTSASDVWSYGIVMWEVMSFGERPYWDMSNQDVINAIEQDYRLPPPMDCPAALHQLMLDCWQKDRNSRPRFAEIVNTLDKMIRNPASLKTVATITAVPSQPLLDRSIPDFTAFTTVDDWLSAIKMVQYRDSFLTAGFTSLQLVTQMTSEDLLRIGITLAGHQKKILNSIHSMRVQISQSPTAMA
- PROTOCOL DETAILS: phosphorylation enrichment, bacterial display (enrichment ratio); higher = better substrate or ligand; peptides without Tyr show the background
Answer with a number only.

Task: Any idea what its phosphorylation enrichment is? The sequence is RKVAQYMLENE [SLC16A6_Y224_E221V]
Output: 0.612

Task: Any idea what its phosphorylation enrichment is? The sequence is IINENYDYLKG [NUP98_Y1664]
Output: 0.657

Task: Any idea what its phosphorylation enrichment is? The sequence is MRTMGYMPTEM [CABP5_Y62]
Output: 0.428

Task: Any idea what its phosphorylation enrichment is? The sequence is DLLNSYTENEG [HSPA4L_Y600_I601T]
Output: 0.482

Task: Any idea what its phosphorylation enrichment is? The sequence is DSMQSYDLDFP [UNC13B_Y243_YF]
Output: 0.642

Task: Any idea what its phosphorylation enrichment is? The sequence is IKGNMYFENSF [EGFR_Y112_R108K_YF]
Output: 0.589

Task: Any idea what its phosphorylation enrichment is? The sequence is SSQTVYQRVEG [TFR2_Y23]
Output: 0.631

Task: Any idea what its phosphorylation enrichment is? The sequence is KELSSYKHLTL [SLIT2_Y776_N775S]
Output: 0.315

Task: Any idea what its phosphorylation enrichment is? The sequence is GPKSTYISSAG [GOLGA5_Y62_A67G]
Output: 0.298

Task: Any idea what its phosphorylation enrichment is? The sequence is PNAYIYVVQLP [L1CAM_Y420_A415P]
Output: 1.08

Task: Any idea what its phosphorylation enrichment is? The sequence is SVQVDYMKTIL [GLYATL2_Y127]
Output: 0.527

Task: Any idea what its phosphorylation enrichment is? The sequence is CHSDDYVHISI [TSC1_Y406_L411I]
Output: 0.898

Task: Any idea what its phosphorylation enrichment is? The sequence is EREYKYGAHNY [OAT_Y50]
Output: 0.354

Task: Any idea what its phosphorylation enrichment is? The sequence is LARDIYKNDFF [ROS1_Y2110_YF]
Output: 0.962

Task: Any idea what its phosphorylation enrichment is? The sequence is KNCFKYYMSDD [ATRX_Y203]
Output: 0.794

Task: Any idea what its phosphorylation enrichment is? The sequence is SVVVPYESPEV [TP53_Y220_P222S]
Output: 0.57

Task: Any idea what its phosphorylation enrichment is? The sequence is AAGGRYDGLLG [HARS2_Y364_V368L]
Output: 0.471

Task: Any idea what its phosphorylation enrichment is? The sequence is LPQDGYRIVQH [PTPRT_Y1329_R1324L]
Output: 0.402
